Please provide measured growth for the entries that follow.
Tested on: IGROV1 ovarian
Experiment: NCI-60 one-dose screen, 48 h (100 = growth as untreated, 0 = no growth, -100 = all killed)
Details: 10 µM unless noted
Protocol: Growth inhibition of the IGROV1 human tumor cell line is measured as a screen for anti-cancer activity. Cells are grown in 96 well plates and exposed to the test compound for 48 hours. Compounds are tested at a single concentration, which is 10^-5 M for most compounds. The reported endpoint is percent growth (GI% or GIPRCNT), where numbers from 0 - 100% represent growth inhibition, and numbers from -100% - 0 represent cell death. For example, a value of 40 represents 60% growth inhibition. […]
The panel holds about 83,000 compounds, 20% with a hit somewhere; the sample as a whole holds those more often.
Return type: number; implicit unit %.

INPUT: Find growth (IGROV1 ovarian) for the entry COc1ccc(NC(=O)CSc2nc3ccc(Cl)cc3c(=O)n2-c2ccccc2C(F)(F)F)c(OC)c1OC
OUTPUT: 75.3

INPUT: Find growth (IGROV1 ovarian) for the entry O=C(O)c1cccc([N+](=O)[O-])c1/C=C/c1ccccc1
OUTPUT: 94.8

INPUT: Find growth (IGROV1 ovarian) for the entry C=C1C(=O)O[C@H]2[C@H]1CC/C(Cn1cc(-c3ccccc3C(F)(F)F)nn1)=C\CC[C@@]1(C)O[C@@H]21
OUTPUT: -21.4

INPUT: Find growth (IGROV1 ovarian) for the entry Cc1cc(-c2ccccc2)c(C)n1Cc1ccc(Cl)cc1
OUTPUT: 50.4

INPUT: Find growth (IGROV1 ovarian) for the entry CN(C)c1ncc(-c2ccc(C(F)(F)F)cc2)c(NC2CCCCCC2)n1
OUTPUT: 78.6

INPUT: Find growth (IGROV1 ovarian) for the entry O=C(Nc1ccc(F)cc1)c1cc([N+](=O)[O-])ccc1O
OUTPUT: 66.3

INPUT: Find growth (IGROV1 ovarian) for the entry COc1cc(Cn2c(SCCC(=O)Nc3ccc(F)cc3)nc3ccccc3c2=O)cc(OC)c1OC
OUTPUT: 77.8

INPUT: Find growth (IGROV1 ovarian) for the entry Oc1ccc(N=Cc2ccccc2)cc1
OUTPUT: 97.1

INPUT: Find growth (IGROV1 ovarian) for the entry O=c1oc2cc(OS(=O)(=O)c3ccc(F)cc3)ccc2c2c1CCCCC2
OUTPUT: 95.2

INPUT: Find growth (IGROV1 ovarian) for the entry O=C(O)c1cn(C2CC2)c2cc(N3CCN(S(=O)(=O)c4ccc(Cl)c(Cl)c4)CC3)c(F)cc2c1=O
OUTPUT: 29.3

Provenance of the data: PubChem BioAssay (NCI)
